- ASSAY_METHOD_TEXT: Fibril dimensions measured from TEM images
- Type: physicochemical
- TEST_CONTEXT: physiological conditions, TEM
Where a SMILES comes first, the peptide text is derived from it. [ ]: non-standard residue; d: D form. Orn = NCCC[C@H](N)C(=O)O
Task for the reader: assign each of the following compounds its reported L, fibril contour length.

Can you look up the measured L, fibril contour length of CC(=O)N[C@@H](CO)C(=O)N[C@@H](CO)C(=O)N[C@@H](CCCNC(=N)N)C(=O)N[C@@H](Cc1ccccc1)C(=O)N[C@@H](CCCN)C(=O)N[C@@H](Cc1c[nH]c2ccccc12)C(=O)N[C@@H](CCCN)C(=O)N[C@@H](Cc1ccccc1)C(=O)N[C@@H](CCC(=O)O)C(=O)N[C@@H](CO)C(=O)N[C@@H](CO)C(N)=O [Peptide P11-12, CH3CO-S-S-R-F-O-W-O-F-E-S-S-NH2] (Ac-SSRF[Orn]W[Orn]FESS-NH2) for me?
1.3-5 μm

Can you look up the measured L, fibril contour length of CC(=O)N[C@@H](CC(N)=O)C(=O)N[C@@H](CC(N)=O)C(=O)N[C@@H](CCCNC(=N)N)C(=O)N[C@@H](Cc1ccccc1)C(=O)N[C@@H](CCC(=O)O)C(=O)N[C@@H](Cc1c[nH]c2ccccc12)C(=O)N[C@@H](CCC(=O)O)C(=O)N[C@@H](Cc1ccccc1)C(=O)N[C@@H](CCC(=O)O)C(=O)N[C@@H](CC(N)=O)C(=O)N[C@@H](CC(N)=O)C(N)=O [Peptide P11-15, CH3CO-N-N-R-F-E-W-E-F-E-N-N-NH2] (Ac-NNRFEWEFENN-NH2) for me?
1.3-4 μm

Can you look up the measured L, fibril contour length of CC(=O)N[C@H](C(=O)N[C@H](C(=O)N[C@@H](CCCNC(=N)N)C(=O)N[C@@H](Cc1ccccc1)C(=O)N[C@@H](CCC(=O)O)C(=O)N[C@@H](Cc1c[nH]c2ccccc12)C(=O)N[C@@H](CCC(=O)O)C(=O)N[C@@H](Cc1ccccc1)C(=O)N[C@@H](CCC(=O)O)C(=O)N[C@H](C(=O)N[C@H](C(N)=O)[C@@H](C)O)[C@@H](C)O)[C@@H](C)O)[C@@H](C)O [Peptide P11-17, CH3CO-T-T-R-F-E-W-E-F-E-T-T-NH2] (Ac-TTRFEWEFETT-NH2) for me?
1.3-4.5 μm

Can you look up the measured L, fibril contour length of CC(=O)N[C@H](C(=O)N[C@H](C(=O)N[C@@H](CCCNC(=N)N)C(=O)N[C@@H](Cc1ccccc1)C(=O)N[C@@H](CCCN)C(=O)N[C@@H](Cc1c[nH]c2ccccc12)C(=O)N[C@@H](CCCN)C(=O)N[C@@H](Cc1ccccc1)C(=O)N[C@@H](CCC(=O)O)C(=O)N[C@H](C(=O)N[C@H](C(N)=O)[C@@H](C)O)[C@@H](C)O)[C@@H](C)O)[C@@H](C)O [Peptide P11-18, CH3CO-T-T-R-F-O-W-O-F-E-T-T-NH2] (Ac-TTRF[Orn]W[Orn]FETT-NH2) for me?
1.4-4.2 μm

Can you look up the measured L, fibril contour length of CC(=O)N[C@@H](CCC(N)=O)C(=O)N[C@@H](CCC(N)=O)C(=O)N[C@@H](CCCNC(=N)N)C(=O)N[C@@H](CCC(N)=O)C(=O)N[C@@H](CCCN)C(=O)N[C@@H](CCC(N)=O)C(=O)N[C@@H](CCCN)C(=O)N[C@@H](CCC(N)=O)C(=O)N[C@@H](CCC(=O)O)C(=O)N[C@@H](CCC(N)=O)C(=O)N[C@@H](CCC(N)=O)C(N)=O [Peptide P11-19, CH3CO-Q-Q-R-Q-O-Q-O-Q-E-Q-Q-NH2] (Ac-QQRQ[Orn]Q[Orn]QEQQ-NH2) for me?
1.5-3 μm

Can you look up the measured L, fibril contour length of CC(=O)N[C@@H](CO)C(=O)N[C@@H](CO)C(=O)N[C@@H](CCCNC(=N)N)C(=O)N[C@@H](Cc1ccccc1)C(=O)N[C@@H](CCC(=O)O)C(=O)N[C@@H](Cc1c[nH]c2ccccc12)C(=O)N[C@@H](CCC(=O)O)C(=O)N[C@@H](Cc1ccccc1)C(=O)N[C@@H](CCC(=O)O)C(=O)N[C@@H](CO)C(=O)N[C@@H](CO)C(N)=O [Peptide P11-9, CH3CO-S-S-R-F-E-W-E-F-E-S-S-NH2] (Ac-SSRFEWEFESS-NH2) for me?
1.1-5 μm

Can you look up the measured L, fibril contour length of CC(=O)N[C@@H](CC(N)=O)C(=O)N[C@@H](CC(N)=O)C(=O)N[C@@H](CCCNC(=N)N)C(=O)N[C@@H](Cc1ccccc1)C(=O)N[C@@H](CCCN)C(=O)N[C@@H](Cc1c[nH]c2ccccc12)C(=O)N[C@@H](CCCN)C(=O)N[C@@H](Cc1ccccc1)C(=O)N[C@@H](CCC(=O)O)C(=O)N[C@@H](CC(N)=O)C(=O)N[C@@H](CC(N)=O)C(N)=O [Peptide P11-16, CH3CO-N-N-R-F-O-W-O-F-E-N-N-NH2] (Ac-NNRF[Orn]W[Orn]FENN-NH2) for me?
1.2-3.9 μm
